B1: REST corepressor 3, residues 87 to 134; numbered along this chain, Q9P2K3 (parent)
chain: DEWTVEDKVLFEQAFSFHGKSFHRIQQMLPDKTIASLVKYYYSWKKTR

- Variants of: B1
- METHOD NOTES: abundance fitness (aPCA) (normalised: wild type 0, dead -1); higher = more abundant; growth selection in yeast, the domain comes from the species named
- MEASUREMENT PARAMETERS: Homo sapiens
MEASUREMENT TYPE: abundance fitness
Lab note: jot the number down without any unit.

"L37T" has a reported abundance fitness of -0.542

"Y42L" has a reported abundance fitness of 0.015

"Q13I" has a reported abundance fitness of -0.56

"I34C" has a reported abundance fitness of -0.869

"Y42H" has a reported abundance fitness of -0.236

"T33D" has a reported abundance fitness of -0.354

"S16V" has a reported abundance fitness of -0.393

"A35G" has a reported abundance fitness of 0.045

"K39G" has a reported abundance fitness of -0.11

"F17R" has a reported abundance fitness of 0.137

"R24S" has a reported abundance fitness of -0.465

"S43R" has a reported abundance fitness of 0.021

"Y42V" has a reported abundance fitness of 0.02

"I34A" has a reported abundance fitness of -0.845

"T33G" has a reported abundance fitness of -0.265

"D7A" has a reported abundance fitness of -0.811

"F17I" has a reported abundance fitness of -0.055

"Q27S" has a reported abundance fitness of -0.482

"Q27C" has a reported abundance fitness of -0.752

"L37I" has a reported abundance fitness of -0.35

"V9P" has a reported abundance fitness of -0.828

"E2H" has a reported abundance fitness of -0.265

"D1G" has a reported abundance fitness of 0.138

"K39A" has a reported abundance fitness of -0.481

"E6V" has a reported abundance fitness of -0.777

"L37M" has a reported abundance fitness of -0.711

"T4G" has a reported abundance fitness of -0.84

"K46L" has a reported abundance fitness of -0.645

"Q13M" has a reported abundance fitness of -0.101

"K32T" has a reported abundance fitness of -0.819

"I34F" has a reported abundance fitness of -0.036

"F17Q" has a reported abundance fitness of -0.654

"Q27D" has a reported abundance fitness of -0.62

"A35T" has a reported abundance fitness of 0.073

"E12K" has a reported abundance fitness of -0.643

"K32P" has a reported abundance fitness of -0.742

"V38H" has a reported abundance fitness of -0.723

"L29R" has a reported abundance fitness of -0.771

"K39E" has a reported abundance fitness of -0.574

"F22G" has a reported abundance fitness of -0.739

"T33W" has a reported abundance fitness of -0.693

"E2C" has a reported abundance fitness of -0.116

"V38I" has a reported abundance fitness of 0.279

"L10V" has a reported abundance fitness of -0.051

"T4L" has a reported abundance fitness of -0.727

"K46G" has a reported abundance fitness of -0.202

"Y42W" has a reported abundance fitness of 0.056

"P30L" has a reported abundance fitness of -0.928

"K39D" has a reported abundance fitness of -0.575

"Q13H" has a reported abundance fitness of -0.234

"F15R" has a reported abundance fitness of -0.675
